Test system: influenza A Puerto Rico 8/34/H1N1 (PR8) virus
ASSAY: microbe, parasite or virus in culture
Type: cell-based
CONDITIONS: ratio CC50/IC50, A549
The label is Fulfilled for Selectivity Index (SI) below 3 and Not fulfilled for Selectivity Index (SI) equal to or exceeding 3.

chemical_string=Oc1ccc(/C=C/c2ccc(Cl)cc2Cl)cc1Cl class_assignment=Fulfilled
chemical_string=O=[N+]([O-])c1ccc(/C=C/c2ccc(O)c(Cl)c2)cc1 class_assignment="Not fulfilled"
chemical_string=O=[N+]([O-])c1ccc(/C=C/c2ccc(O)cc2)cc1 class_assignment="Not fulfilled"
chemical_string=Oc1ccc(/C=C/c2ccccc2)cc1Cl class_assignment="Not fulfilled"
chemical_string=COc1ccc(/C=C/c2ccc(O)cc2)cc1 class_assignment="Not fulfilled"
chemical_string=Oc1ccc(/C=C/c2ccc(C(F)(F)F)cc2)cc1 class_assignment=Fulfilled
chemical_string=Oc1ccc(/C=C/c2ccc(C(F)(F)F)cc2)cc1Cl class_assignment=Fulfilled
chemical_string=Oc1ccc(/C=C/c2ccc(Cl)cc2Cl)cc1 class_assignment=Fulfilled
chemical_string=N#Cc1ccc(/C=C/c2ccc(O)cc2)cc1 class_assignment=Fulfilled

// provenance: paper PMC9505218
